# measurement target: MMP-14 (Homo sapiens, UniProt P50281)
# Construct: The catalytic domain enzyme was expressed in E. coli inclusion bodies, solubilized in urea; made in house
# experimental protocol: In vitro MMP inhibition, Ki determination (fluorogenic substrate II)
# Format: biochemical
# conditions used: value not in parenthesis; read-out: MMP-14 Ki
# Experimental: Several hydroxamic acids and salts thereof were analyzed in in vitro assays to determine their ability to inhibit the MMP cleavage of peptide substrates. […] and IC50 constants were calculated from the assayed hydroxamic acid-MMP interactions. […] The assays from which the Ki determinations were made were performed as follows. […] In the absence of MMP inhibitory activity, substrate II was cleaved at the Gly-Leu bond resulting in an increase of relative fluorescence. […]
pKi: −log10 of the molar value.
readout kind: pKi

Reference set, count: 2
> print(dat)
                                   compound                     measurement.target  measured.result
1  CCCCOc1ccc(N2CCN(S(=O)(=O)C3(C(=O)NO)CCN(c4ccc(O)cc4)CC3)CC2)cc1  MMP-14 (Homo sapiens, UniProt P50281)           < 5.00
2  CCCCCCCCCc1cnc(N2CCN(S(=O)(=O)C3(C(=O)NO)CCOCC3)CC2)nc1 [Example 111]  MMP-14 (Homo sapiens, UniProt P50281)           < 5.00

# evaluate next
Supply pKi value. Item: "CCCCOc1ccc(N2CCN(S(=O)(=O)C3(C(=O)NO)CCN(c4ccc(OC(F)(F)C(F)F)cc4)CC3)CC2)cc1"
< 5.00

====

# measurement target: MMP-9 (Homo sapiens, UniProt P14780)
# Construct: made in house; host or cells: MMP-9-transfected HT1080 cells (spent media)
# Sequence (P14780 107-707 limits assumed): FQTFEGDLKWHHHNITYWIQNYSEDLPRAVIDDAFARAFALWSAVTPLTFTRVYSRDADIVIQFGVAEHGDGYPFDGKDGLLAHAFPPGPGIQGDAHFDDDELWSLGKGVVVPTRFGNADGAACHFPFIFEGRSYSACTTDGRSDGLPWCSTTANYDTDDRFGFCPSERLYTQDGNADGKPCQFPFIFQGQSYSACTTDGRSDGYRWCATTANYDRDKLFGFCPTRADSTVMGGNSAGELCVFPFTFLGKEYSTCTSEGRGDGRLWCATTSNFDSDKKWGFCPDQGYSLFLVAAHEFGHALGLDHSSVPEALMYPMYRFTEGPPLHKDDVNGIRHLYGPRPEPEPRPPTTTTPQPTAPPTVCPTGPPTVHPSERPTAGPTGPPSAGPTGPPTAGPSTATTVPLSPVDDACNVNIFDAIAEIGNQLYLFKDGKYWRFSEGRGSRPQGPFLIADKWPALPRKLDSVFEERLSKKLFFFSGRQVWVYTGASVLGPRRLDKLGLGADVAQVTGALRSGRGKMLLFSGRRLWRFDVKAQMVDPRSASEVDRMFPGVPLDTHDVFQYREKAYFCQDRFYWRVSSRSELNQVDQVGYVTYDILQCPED
# experimental protocol: In vitro MMP inhibition, Ki determination (fluorogenic substrate II)
# Format: biochemical
# conditions used: value not in parenthesis
readout kind: Ki (nM)
One number for each entry, in nM.

> print(dat)
                            molecule.smiles                    measurement.target  readout.kind  measured.result
1  CCCCOc1ccc(N2CCN(S(=O)(=O)C3(C(=O)NO)Cc4ccccc4C3)CC2)nc1  MMP-9 (Homo sapiens, UniProt P14780)            Ki             1.17
2  CCCCOc1ccc(N2CCN(S(=O)(=O)C3(C(=O)NO)CCN(c4ccc(OC)c(OC)c4)CC3)CC2)cc1  MMP-9 (Homo sapiens, UniProt P14780)            Ki             4.64
3  CCCCOc1ccc(N2CCN(S(=O)(=O)C3(C(=O)NO)CCN(c4cccc(C)c4)CC3)CC2)cc1  MMP-9 (Homo sapiens, UniProt P14780)            Ki               19
4  CCCCOc1ccc(N2CCN(S(=O)(=O)C3(C(=O)NO)CCN(c4ccc(OC(F)(F)C(F)F)cc4)CC3)CC2)cc1  MMP-9 (Homo sapiens, UniProt P14780)            Ki              128
5  O=C1c2ccccc2C(=O)N1CCCCc1ccc(N2CCN(S(=O)(=O)C3(C(=O)NO)CCOCC3)CC2)nc1  MMP-9 (Homo sapiens, UniProt P14780)            Ki             28.3
6  CCCCOc1ccc(N2CCN(S(=O)(=O)C3(C(=O)NO)CCN(Cc4ccc(C)o4)CC3)CC2)cc1  MMP-9 (Homo sapiens, UniProt P14780)            Ki             1.74

Please give Ki, item by item, for the list that follows.
1. CCCCOc1ccc(N2CCN(S(=O)(=O)C3(C(=O)NO)CCN(C(=O)NCCOC)CC3)CC2)cc1
2. Cc1ccc(N2CCC(C(=O)NO)(S(=O)(=O)N3CCN(c4ccc(OCCCC(F)(F)F)cc4)CC3)CC2)cc1
3. CCCc1ccc(N2CCN(S(=O)(=O)C3(C(=O)NO)CCN(c4ccc(C)cc4)CC3)CC2)cc1
4. CCCCOc1ccc(N2CCN(S(=O)(=O)C3(C(=O)NO)CCN(CCN(CC)CC)CC3)CC2)cc1

1. 1.5
2. 134
3. 6.91
4. 0.9

====

# measurement target: MMP-14 (Homo sapiens)
# Construct: The catalytic domain enzyme was expressed in E. coli inclusion bodies, solubilized in urea; made in house
# experimental protocol: MMP-14 inhibition (in vitro Ki)
# Format: biochemical
# conditions used: Table 9; read-out: MMP-14 Ki (IC-50)
pKi: −log10 of the molar value.
I'd be grateful if you could share measured pKi for these entries.

Reference set, count: 3
> print(dat)
                            molecule.smiles     measurement.target  readout.kind  measured.result
1  CCN(C(=O)CCCC1CCN(S(=O)(=O)C2(C(=O)NO)CCOCC2)CC1)c1ccccc1  MMP-14 (Homo sapiens)           pKi           < 5.00
2  O=C(NO)C1(S(=O)(=O)N2CCN(c3ccc(CCCC(F)(F)F)cc3)CC2)CCN(CC(F)(F)F)CC1  MMP-14 (Homo sapiens)           pKi           < 5.00
3  CN(C(=O)CCCCC1CCN(S(=O)(=O)C2(C(=O)NO)CCOCC2)CC1)C1CCCCC1  MMP-14 (Homo sapiens)           pKi           < 5.00

Please give pKi, item by item, for the list that follows.
1. CN(C(=O)/C=C/C=C/C1CCN(S(=O)(=O)C2(C(=O)NO)CCOCC2)CC1)C1CCCCC1
2. CN(Cc1ccco1)C(=O)CCCC1CCN(S(=O)(=O)C2(C(=O)NO)CCOCC2)CC1

1. < 5.00
2. < 5.00

Please give pKi, item by item, for the list that follows.
1. O=C(CCCCN1CCN(S(=O)(=O)C2(C(=O)NO)CCOCC2)CC1)c1ccc(OC(F)(F)F)cc1
2. O=C(/C=C/C=C/C1CCN(S(=O)(=O)C2(C(=O)NO)CCOCC2)CC1)N1CCN(c2ccccc2)CC1
3. O=C(CCCCC1CCN(S(=O)(=O)C2(C(=O)NO)CCOCC2)CC1)N1CCN(c2ccccc2)CC1
4. CN(C(=O)CCCCC1CCN(S(=O)(=O)C2(C(=O)NO)CCOCC2)CC1)c1ccccc1
5. O=C(NO)C1(S(=O)(=O)N2CCC(c3ccc(C(F)(F)CCC(F)(F)F)cn3)CC2)CCOCC1
6. O=C(NO)C1(S(=O)(=O)N2CCC(c3cnc(CCC(F)(F)F)cn3)CC2)CCOCC1

1: < 5.00; 2: < 5.00; 3: < 5.00; 4: < 5.00; 5: < 5.00; 6: < 5.00

Please give pKi, item by item, for the list that follows.
1. CN(C(=O)CCCN1CCN(S(=O)(=O)C2(C(=O)NO)CCOCC2)CC1)C1CCCCC1
2. O=C(CCCCN1CCN(S(=O)(=O)C2(C(=O)NO)CCOCC2)CC1)N1CCCCC1
3. O=C(CCCCC1CCN(S(=O)(=O)C2(C(=O)NO)CCOCC2)CC1)N1CCCCC1

1: < 5.00; 2: < 5.00; 3: < 5.00

Please give pKi, item by item, for the list that follows.
1. O=C(NO)C1(S(=O)(=O)N2CCC(F)(c3ccc(CCCC(F)(F)F)cn3)CC2)CCOCC1
2. COC(=O)CCCC1CCN(S(=O)(=O)C2(C(=O)NO)CCOCC2)CC1
3. O=C(NO)C1(S(=O)(=O)N2CCC(c3ccc(CCC(F)(F)C(F)(F)F)cn3)CC2)Cc2ccccc2C1
4. CCCCC#Cc1ccc(C2CCN(S(=O)(=O)C3(C(=O)NO)CCOCC3)CC2)nc1

1. < 5.00
2. 5.76
3. 5.36
4. 6.66

====

# measurement target: MMP-1 (Homo sapiens, UniProt P03956)
# Construct: made in house; host or cells: MMP-1-transfected HT-1080 cells (spent media)
# Sequence (P03956 100-469): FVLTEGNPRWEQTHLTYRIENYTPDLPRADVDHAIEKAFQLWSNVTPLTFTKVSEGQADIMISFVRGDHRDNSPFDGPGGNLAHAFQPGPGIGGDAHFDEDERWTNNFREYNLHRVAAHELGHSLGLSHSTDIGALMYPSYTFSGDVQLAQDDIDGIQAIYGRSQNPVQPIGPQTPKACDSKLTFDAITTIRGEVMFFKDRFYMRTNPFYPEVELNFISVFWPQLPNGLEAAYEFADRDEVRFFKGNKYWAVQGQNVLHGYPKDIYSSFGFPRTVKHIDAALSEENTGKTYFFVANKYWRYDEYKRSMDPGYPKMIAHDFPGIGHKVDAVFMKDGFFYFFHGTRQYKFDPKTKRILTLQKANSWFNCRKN
# experimental protocol: In vitro MMP inhibition, Ki determination (fluorogenic substrate II)
# Assay type: biochemical
# conditions used: value not in parenthesis; read-out: MMP-1 Ki
I'd be grateful if you could share measured pKi for these entries.
Answers are plain numbers, as −log10 of the molar value.

Reference set, count: 3
> print(dat)
                                   compound  measured.result
1  CCCCOc1ccc(N2CCN(S(=O)(=O)C3(C(=O)NO)CCOCC3)CC2)nc1 [Example 100]             5.80
2  O=C(NO)C1(S(=O)(=O)N2CCN(c3ncccn3)CC2)CCOCC1 [Example 107]             5.92
3  O=C(NO)C1(S(=O)(=O)N2CCN(c3ccc(-c4ccc(Cl)cc4)cn3)CC2)CCOCC1 [Example 60]             6.26

# evaluate next
Supply pKi value. Item: COCCSc1ccc(N2CCN(S(=O)(=O)C3(C(=O)NO)CCOCC3)CC2)cc1 [Example 227]
5.03
